- ASSAY_SYSTEM: squalene synthetase (Homo sapiens, UniProt P37268)
- Construct: From the resulting sonicate, microsome fraction was obtained according to the same manner as that described in Experiment 1; endogenous in cells; host or cells: HepG2 human hepatoma cells (microsome fraction)
- Sequence (P37268 whole entry): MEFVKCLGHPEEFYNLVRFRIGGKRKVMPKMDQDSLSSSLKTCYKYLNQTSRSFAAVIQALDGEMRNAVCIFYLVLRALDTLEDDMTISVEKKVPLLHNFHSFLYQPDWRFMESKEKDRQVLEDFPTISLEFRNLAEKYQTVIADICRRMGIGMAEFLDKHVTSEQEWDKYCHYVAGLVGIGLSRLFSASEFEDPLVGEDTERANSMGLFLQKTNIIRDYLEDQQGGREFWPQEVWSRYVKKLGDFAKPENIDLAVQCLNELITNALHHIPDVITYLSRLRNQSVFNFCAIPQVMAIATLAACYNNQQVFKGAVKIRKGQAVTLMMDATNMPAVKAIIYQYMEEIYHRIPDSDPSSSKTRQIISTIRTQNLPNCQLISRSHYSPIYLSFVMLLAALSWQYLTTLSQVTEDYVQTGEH
- PROTOCOL_SUMMARY: Squalene synthetase inhibitory activity, human enzyme (HepG2 microsome fraction)
- Type: biochemical
Structures can show the parent of a compound that is named as a salt.
pIC50 overview
Friendly reminder that pIC50 comes from taking -log10 of the concentration in mol/L.

{"MOLECULE": "CCOP(=O)(O)C(NCCCCCCSc1ccccc1)P(=O)(O)O (centres unmarked) [Compound No. 113, monosodium salt]", "pIC50": 8.01}

Lab note: next molecule to report on.
Returns the measured pIC50 for the input molecule. Input: CCOP(=O)(O)C(NC/C=C(\C)CC/C=C(\C)CCC=C(C)C)P(=O)(O)O (centres unmarked) [Compound No. 111, monosodium salt]
7.66
